- assayed_system: T1, 4H3112-bH
- T1 chain: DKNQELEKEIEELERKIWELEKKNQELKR
- assay_method_text: two-hybrid library CCNG1;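 also: natural log of median RNA to DNA barcode read ratio; higher means stronger binding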
observable: interaction score
Answer with the value's number alone.

Examples from the recorded data:
Field interaction score (entry DKIQELKKEIEELEREIWELKKKNQELKR [4H2576-bH] ) reads 0.913

Field interaction score (entry DKIQELEKKNEELEREIWELKKEIQELKR [4H2442-bH] ) reads -0.123

Field interaction score (entry DKIQELKKEIEELKREIWELEKENQELER [4H2627-bH] ) reads -0.225

Consider the record given below.
Field interaction score (entry DEIQELEKEIEELKRKIWELKKKNQELKR [4H112-bH] ) reads 1.27
